Test system: large crabgrass
Assay: Test C pre-/postemergence herbicide test
Assay type: in vivo, Digitaria sanguinalis
Conditions: 125 g ai/ha; scale 0 (no effect) to 100 (complete control); visual, 12 to 14 days; preemergence
observationType: Plant response rating, Crabgrass, Large

| compound | subjectOfTest | Plant response rating, Crabgrass, Large |
| --- | --- | --- |
| CCNC(=O)c1cc(C)nc(NC(=O)c2cc(C(C)(C)C)nn2CC)c1 [Compound 149] | large crabgrass | 90 |
| CCn1nc(C2(C)CC2)cc1C(=O)Nc1cccc(C(=O)N2CC=CC2)c1 [Compound 304] | large crabgrass | 100 |
| CCn1nc(C(C)(C)C)cc1C(=O)Nc1cc(C(=O)N2CCCC2)ccc1F [Compound 242] | large crabgrass | 100 |
| CCn1nc(C(C)(C)C)cc1C(=O)Nc1ccc(F)c(C(=O)NCCF)c1 [Compound 60] | large crabgrass | 90 |

Now consider the entry below.
Plant response rating, Crabgrass, Large on large crabgrass for CCn1nc(C(C)(C)C)cc1C(=O)Nc1cccc(S(=O)(=O)C(F)(F)F)c1 [Compound 134] is 95

====

Tested on: wild oat
Test: Test B postemergence herbicide test
Assay type: in vivo, Avena fatua
Conditions: postemergence, 500 g ai/ha; scale 0 to 100, 0 is no effect, 100 is complete control
Procedure: At the same time, plants selected from these crop and weed species and also blackgrass (Alopecurus myosuroides Huds.), wheat (Triticum aestivum L.) and wild oat (Avena fatua L.) were treated with postemergence applications of test chemicals formulated in the same manner. […] Treated plants and controls were maintained in a greenhouse for 13 to 15 days, after which time all species were compared to controls and visually evaluated. […]
Recorded Oat, Wild plant response rating for the following compounds

| compound | valueReported |
| --- | --- |
| COC(=O)c1cccc(NC(=O)c2cc(C(C)(C)C)nn2C)n1 | 0 |

Entry "CCn1nc(C(C)(C)C)cc1C(=O)Nc1cccc(C(=O)N2CC=CC2)c1" , Oat, Wild plant response rating reported as 40

So, "CCn1nc(C(C)(C)C)cc1C(=O)Nc1cc(C(=O)N2CCOCC2)ccc1F" ? Its Oat, Wild plant response rating was 20

Item: "CCn1nc(C(C)(C)C)cc1C(=O)Nc1cncc(C(=O)N(C)C)n1" | Oat, Wild plant response rating: 40

Value of measured Oat, Wild plant response rating for the entry CCC1=NN(C(C)(C)C)CC1C(=O)Nc1cc(C(=O)N2CCCC2)ccc1F (racemic) : 30

====

Test system: Surinam grass
Assay: Test C pre-/postemergence herbicide test
Format: in vivo, Urochloa decumbens
Details: 125 g ai/ha; scale 0 (no effect) to 100 (complete control); visual, 12 to 14 days; preemergence
Plant response rating, Surinam Grass for assorted molecules
Hey, just send me the number, nothing else.

Answered cases to consult:
| chemSmiles | subjectOfTest | Plant response rating, Surinam Grass |
| --- | --- | --- |
| CCCn1nc(C(C)(C)C)cc1C(=O)Nc1cccc(C(=O)NCC)c1 | Surinam grass | 15 |
| CCNC(=O)c1cc(C)nc(NC(=O)c2cc(C(C)(C)C)nn2CC)c1 | Surinam grass | 5 |
| CCn1nc(C(C)(C)C)cc1C(=O)Nc1cccc(C(C)=NO)c1 | Surinam grass | 40 |
| CCn1nc(C(C)(C)C)cc1C(=O)Nc1cccc(C#N)c1 | Surinam grass | 20 |
| C=CCNC(=O)c1cccc(NC(=O)c2sc(C(C)(C)C)nc2C)c1 | Surinam grass | 20 |

Consider "CCn1nc(C(C)(C)C)cc1C(=O)Nc1cccc(C(=O)NC2CC2)n1" . Its measured Plant response rating, Surinam Grass is 0

Record summary for "CCC(=NO)c1cccc(NC(=O)c2cc(C(C)(C)C)nn2C)c1" : reported Plant response rating, Surinam Grass = 20

====

System: morningglory
Test: Test B pre-/postemergence herbicide test
Assay type: in vivo, Ipomoea coccinea
Conditions: 500 g ai/ha; visual rating 0-100, 0 no effect, 100 complete control; preemergence
Measured Plant response rating, Morningglory of individual entries
# print the numeric value only

// known answers, use as guide
| chemSmiles | Plant response rating, Morningglory |
| --- | --- |
| C=CCn1nc(C(C)(C)C)cc1C(=O)Nc1cccc(C(C)=NO)c1 | 60 |
| CCn1nc(C(C)(C)C)cc1C(=O)Nc1cccc(C(=O)N(C)CC#N)n1 | 50 |
| CCN(CC)C(=O)c1cccc(NC(=O)c2cc(C(C)(C)C)nn2CC)n1 | 40 |
| COc1ccc(C(C)=NO)cc1NC(=O)c1cc(C(C)(C)C)nn1C | 20 |

The molecule "CCn1nc(C(C)(C)C)cc1C(=O)Nc1cccc(C(=O)OCC2CC2)c1C" showed Plant response rating, Morningglory equal to 10

Per the records, this molecule ( "CCC(=NO)c1cccc(NC(=O)c2cc(C(C)(C)C)nn2C)c1" ) has Plant response rating, Morningglory equal to 60

The molecule identified as "CC(=NO)c1ccnc(NC(=O)c2cc(C(C)(C)C)nn2C)n1" registered its Plant response rating, Morningglory at 0

Value of Plant response rating, Morningglory reported for the molecule "CC(=O)c1cc(NC(=O)c2cc(C(C)(C)C)nn2C)ccc1F" is 0

# Plant response rating, Morningglory (molecule: "C#CCN(C)C(=O)c1ccnc(NC(=O)c2cc(C(C)(C)C)nn2CC)c1" ) is 90

====

List of Velvetleaf plant response rating values.
Tested on: velvetleaf
Assay: Test B pre-/postemergence herbicide test
Assay type: in vivo, Abutilon theophrasti
Conditions: postemergence, 500 g ai/ha; scale 0 to 100, 0 is no effect, 100 is complete control
Experimental: […] At the same time, plants selected from these crop and weed species and also blackgrass (Alopecurus myosuroides Huds.), wheat (Triticum aestivum L.) and wild oat (Avena fatua L.) were treated with postemergence applications of test chemicals formulated in the same manner. […] Treated plants and controls were maintained in a greenhouse for 13 to 15 days, after which time all species were compared to controls and visually evaluated. […]

| compound | Velvetleaf plant response rating |
| --- | --- |
| Cc1nn(C(C)(C)C)cc1C(=O)Nc1cc(C(=O)N(C)C)ccc1F [Compound 344] | 30 |
| CCn1nc(C(C)(C)C)cc1C(=O)Nc1cccc(OC(C)C)c1 [Compound 273] | 70 |
| CCN1N=C(C(C)(C)C)CC1C(=O)Nc1cc(C(=O)N2CCCC2)ccc1F (racemic) [Compound 309] | 40 |

Now for a further compound.
Form: compound = C#CCNC(=O)c1cncc(NC(=O)c2cc(C(C)(C)C)nn2CC)c1 [Compound 264] ; Velvetleaf plant response rating = 0

====

System: kochia
Test: Test C pre-/postemergence herbicide test
Assay type: in vivo, Kochia scoparia
Conditions: postemergence, 125 g ai/ha; scale 0 to 100
observationType: Plant response rating, Kochia
Reply: number alone, nothing else.

Solved entries:
| compound | Plant response rating, Kochia |
| --- | --- |
| CCn1nc(C(C)(C)C)cc1C(=O)Nc1ccc(F)c(C(=O)NCCF)c1 [Compound 60] | 20 |
| CCn1nc(C(C)(C)C)cc1C(=O)Nc1cccc(C(C)=NO)c1 [Compound 108] | 80 |
| CCn1nc(C(C)(C)C)cc1C(=O)Nc1cccc(OC(F)(F)C(F)F)c1 [Compound 333] | 100 |
| CC(=NO)c1cccc(NC(=O)c2cc(C(C)(C)C)nn2CC(F)(F)F)c1 [Compound 112] | 20 |

Now, please, on to the next compound.
// Plant response rating, Kochia lookup, compound = CCn1nc(C(C)(C)C)cc1C(=O)Nc1cccc(C#N)c1 [Compound 139] , result: 50

====

System: morningglory
Assay: Test B pre-/postemergence herbicide test
Type: in vivo, Ipomoea coccinea
Details: preemergence, 125 g ai/ha; 0 to 100 scale, 0 is no effect, 100 is complete control
observationType: Plant response rating, Morningglory

Example entries begin here.
| compound | subjectOfTest | valueReported |
| --- | --- | --- |
| CCn1nc(C(C)(C)C)cc1C(=O)Nc1cccc(S(C)(=O)=O)c1 [Compound 133] | morningglory | 10 |
| CCn1nc(C(C)(C)C)cc1C(=O)Nc1nccc(OC)n1 [Compound 165] | morningglory | 0 |
| CCn1nc(C(C)(C)C)cc1C(=O)Nc1cccc(C(=O)N(C)CC#N)n1 [Compound 158] | morningglory | 50 |

What the record says about COc1ccc(C(C)=NO)cc1NC(=O)c1cc(C(C)(C)C)nn1C [Compound 104] : Plant response rating, Morningglory is 0

Quick note, Plant response rating, Morningglory for CCn1nc(C(C)(C)C)cc1C(=O)Nc1cccc(C(C)=NO)c1 [Compound 108] landed at 50

For reference, reported Plant response rating, Morningglory for C#CCN(C)C(=O)c1ccnc(NC(=O)c2cc(C(C)(C)C)nn2CC)c1 [Compound 160] stands at 20

// Plant response rating, Morningglory value for CCOC(=O)c1cccc(NC(=O)c2cc(C(C)(C)C)nn2CCF)c1 [Compound 79] : 0
